Test: acute oral toxicity, OECD 423 test
Details: 300 mg/kg; Day 1 (before administration)
readout: average body weight (g)
Value expressed in g; do not type the unit.

Lookup: I would be grateful if you could share the reported average body weight for CC1(C)CC(=O)[C@@]2(C)CCc3c(ccc4cc(OS(N)(=O)=O)ccc34)[C@@H]2C1 .
Found: 28.1

====

Assay: acute oral toxicity, OECD 423 test
Conditions: 300 mg/kg; Day 14
readout: average body weight (g)
Value expressed in g; do not type the unit.

Lookup: I would be grateful if you could share the reported average body weight for CC1(C)CC(=O)[C@@]2(C)CCc3c(ccc4cc(OS(N)(=O)=O)ccc34)[C@@H]2C1 [medicament] .
Found: 29.5

Hello, the source for this data is patent US20220105058A1, in case you need it.
